- Tested on: KGN;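 note: growth inhibition of KGN cells, read out with a cell viability assay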
- assay: cells
- Assay type: functional, cell-based, Homo sapiens
- measurement.parameters: Homo sapiens, KGN
- Description: SANGER: Inhibition of human KGN cell growth in a cell viability assay.
assay.endpoint: pIC50
Numbers only, as −log10 of the molar value.

# count of solved cases: 2
Cc1cc(N2CCOCC2)cc2[nH]c(-c3c(NC[C@@H](O)c4cccc(Cl)c4)cc[nH]c3=O)nc12 ... 5.96
Nc1ccccc1NC(=O)c1ccc(CNC(=O)OCc2cccnc2)cc1 ... 5.56

Please look at the following molecule next.
Sample O=C(NCCCNc1nc(Nc2cccc(NC(=O)N3CCCC3)c2)ncc1I)c1cccs1 — what was its pIC50?
5.65

====

- Test system: HT-29
- assay: cells
- Assay type: functional, cell-based
- measurement.parameters: Homo sapiens
- Description: SANGER: Inhibition of human HT-29 cell growth in a cell viability assay.
assay.endpoint: IC50

NC(=O)c1ccc(N(C(N)=O)c2c(F)cccc2F)nc1-c1ccc(F)cc1F ... > 2 µM

Can you give me IC50 for all of these, one by one?
1. CS(=O)(=O)N1CCN(Cc2cc3nc(-c4cccc5[nH]ncc45)nc(N4CCOCC4)c3s2)CC1
2. O=S(=O)(O)c1ccc2cc(/N=N/c3cc(S(=O)(=O)O)c4cccnc4c3O)ccc2c1

1. > 4 µM
2. > 16 µM

Item: O=C1NC(=O)c2c1c(-c1ccccc1Cl)cc1[nH]c3ccc(O)cc3c21 Test system: HT-29 Read-out: IC50 Value: ?;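 note: growth inhibition of human HT-29 cells, read out by a cell viability assay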
> 2 µM
